Molecular target: Man(a1-3)[Man(a1-6)]Man(b1-4)GlcNAc(b1-4)[Fuc(a1-6)]GlcNAc
Assay: glycan array binding signal (z-score within array); higher = stronger binding
Conditions: glycan notation: IUPAC condensed, linker removed
Shown is part of a subset that was picked to be rich in the strongest signals.
ASSAY_METRIC: glycan array binding signal (z-score)
Answers are plain numbers.

BINDER: BDCA-2 (Homo sapiens), Q8WTT0 (protein) MVPEEEPQDREKGLWWFQLKVWSMAVVSILLLSVCFTVSSVVPHNFMYSKTVKRLSKLREYQQYHPSLTCVMEGKDIEDWSCCPTPWTSFQSSCYFISTGMQSWTKSQKNCSVMGADLVVINTREEQDFIIQNLKRNSSYFLGLSDPGGRRHWQWVDQTPYNENVTFWHSGEPNNLDERCAIINFRSSEEWGWNDIHCHVPQKSICKMKKIYI
ENDPOINT_RESULT: -0.173

BINDER: PpFlo2 (Pichia pastoris) (protein) MGSSHHHHHHSSGLVPRGSHMDDSGNGDNSDTAYGCDITTNAVDGFDATIYQYNANDLRLIRDPTFMSTGYLGRNVLNKISGVTVPGFNIWNPSSRTATVYGVKNVNYYNMVLELKGYFKADVSGDYKLTLSHIDDSSMLFFGKETAFKCCDAGSIPLNEAPTDYSLFTIKPSNQVNSEVISATQYLEAGKYYPVRIVFVNALERARFDFKLTIPSGAVLDDFQNYIYQFGDLDENSCHE
ENDPOINT_RESULT: -0.248

Here's the next entry for you.
Q. Consider the binder shown here: CSA (Cytisus scoparius), P29257 (protein) SEELSFSFTKFKTDQKNLILQRDALITPTGKLQLTTVENGKPAAYSLGRALYSTPIHIWDKSTGDEASFATFFSFVISDAPNPSTAATDGLAFFLAPADTQPQSAGGYLGLFEKDSSYNSSNQIVAVEFDTYYNSAWDPQTNPHIGIDVNTIKSKKVSSWGFKNGNVATVLITYQPSSKSLVASLVYPSGQTSDKTSYIISANVDLKATVPEWVRIGFSATTGQTDNYIETHDILSWSFKSKLPATKN What is its recorded glycan array binding signal (z-score)?
A. -0.225
